assay: qHTS for identification of novel therapeutic agents for treatment of microphthalmiaassociated transcription factor (MiT) renal cell carcinoma (RCC) (AID 1963991); conditions: TFE3-RCC UOK109 viability, CellTiter-Glo, 48 h; also: potency is read from the fitted curve at half-maximal effect
Inconclusive results are not listed. Activity calls are given as the source filed them. Calls follow the shape of the full dose curve.
READOUT KIND: Potency

Look over these answered cases.
CC1=C(O)C(=O)C=C2C1=CC=C1[C@@]2(C)CC[C@@]2(C)[C@@H]3C[C@](C)(C(=O)O)CC[C@]3(C)CC[C@]12C | 2.64 µM (active)
COC1=CC(C)=C[C@@H](C)[C@@H](O)[C@@H](C)CC(C)=CC=C[C@H](OC)[C@H]([C@@H](C)[C@@H](O)[C@H](C)[C@@]2(O)C[C@@H](O)[C@H](C)[C@@H](C(C)C)O2)OC1=O | 26.4 µM (active)

Now take the following compound into account.
// sample O=C(Nc1ccncc1)C(=O)c1cn(Cc2ccc(Cl)cc2)c2ccccc12 , its Potency was 0.469 µM (active)

* * *

assay: qHTS of pediatric cancer cell lines to identify multiple opportunities for drug repurposing: Primary screen for A673 cells (AID 1347092); conditions: A673 Ewing sarcoma viability, CellTiter-Glo ATP luminescence, 48 h; series mostly up to 46 µM; also: nearly all actives have a fitted effect of over 45% in size
Results filed as inconclusive are left out. The source made the active and inactive calls. Calls follow the shape of the dose curve; as a rule, active = well fitted cell-killing curve with a large enough effect; inconclusive = small, poorly fitted or top-dose-only effect; inactive = no such curve, though single readings can be large or run the other way.
// classify into active, inactive

Check out these entries, answers already filled in.
O=C(Nc1ccncc1)C(=O)c1cn(Cc2ccc(Cl)cc2)c2ccccc12 | active
C=C[C@@H]1CN2CCC1C[C@@H]2[C@@H](O)c1ccnc2ccccc12 (stereo partly specified) | active
COc1ccc(C(=O)c2c(C)n(CCN3CCOCC3)c3cc(I)ccc23)cc1 | active
O=S(=O)(O)C(F)(F)C(F)(F)C(F)(F)C(F)(F)F | inactive
CC(O)=C(C#N)C(=O)Nc1cc(Br)ccc1Br | inactive

Query: Lab log entry: O=C1CCC[C@@H]2[C@H]3CCCN4CCC[C@@H](CN12)[C@@H]34 — outcome as called in the assay?
Response: inactive

Query: Lab log entry: CC1=C(O)C(=O)C=C2C1=CC=C1[C@@]2(C)CC[C@@]2(C)[C@@H]3C[C@](C)(C(=O)O)CC[C@]3(C)CC[C@]12C — outcome as called in the assay?
Response: active

Query: Lab log entry: CC(C)(C)NC[C@H](O)c1ccc(O)cc1Cl — outcome as called in the assay?
Response: inactive

Query: Lab log entry: Nc1ccc([N+](=O)[O-])cc1 — outcome as called in the assay?
Response: inactive

Query: Lab log entry: c1cc2ccc3cccc4ccc(c1)c2c34 — outcome as called in the assay?
Response: inactive

Query: Lab log entry: O=[N+]([O-])c1cc([N+](=O)[O-])c2ccccc2c1 — outcome as called in the assay?
Response: inactive

* * *

assay: NS1 protein of Zika virus - qHTS assay to identify small molecule inhibitors in human HEK 293 cells (AID 1347053); settings: HEK293 ZIKV MR766 infection, NS1 TR-FRET, 24 h; series mostly up to 46.1 µM; also: nearly all actives have a fitted effect of over 55% in size
Records with an inconclusive call do not appear. Activity calls are given as the source filed them. The call rests on the fitted dose curve; in most records, active means well fitted inhibition curve with a large enough effect; inconclusive means small, poorly fitted or top-dose-only effect; inactive means no such curve, though single readings can be large or run the other way.
// classify into class 1 for active, class 0 for inactive

C#C[C@]1(O)C=C[C@@H]2[C@@H]3CCC4=CC(=O)CC[C@@H]4[C@H]3CC[C@@]21CC | class 0
COc1cc2cc(c1Cl)N(C)C(=O)C[C@H](OC(=O)C(C)C)[C@]1(C)O[C@H]1[C@H](C)[C@@H]1C[C@@](O)(NC(=O)O1)[C@H](OC)C=CC=C(C)C2 | class 0
COc1ccc2c(c1)CN(C)CC2c1ccc(Cl)c(Cl)c1 (centres undefined) | class 0
O=[N+]([O-])c1c2ccccc2cc2ccccc12 | class 0
CSCC[C@@H](NC(=O)[C@@H](Cc1ccccc1)NC(=O)CNC(=O)CNC(=O)[C@@H](N)Cc1ccc(O)cc1)C(=O)O | class 0

Query: Lab log entry: O=C(Nc1ccccc1-c1ccc(Cl)cc1)c1cccnc1Cl — outcome as called in the assay?
Response: class 0

Query: Lab log entry: CCN1CCN(C(=O)Cc2ccc(Nc3ncc(F)c(Nc4ccc(C(=O)Nc5ccccc5Cl)cc4)n3)cc2)CC1 — outcome as called in the assay?
Response: class 1

Query: Lab log entry: c1ccc(CCCN2CCN(CCOC(c3ccccc3)c3ccccc3)CC2)cc1 — outcome as called in the assay?
Response: class 0

Query: Lab log entry: CCOP(=O)(OCC)C(C)NC(=O)N(CCCl)N=O (centres undefined) — outcome as called in the assay?
Response: class 0

* * *

experiment: Primary qHTS to identify inhibitors of SARS-CoV-2 cell entry (AID 1645846); conditions: SARS-CoV-2 pseudovirus cell entry assay, luminescence; series mostly up to 57.1 µM; also: nearly all actives have a fitted effect of over 45% in size; also: potency is read from the fitted curve at half-maximal effect
Inconclusive results are not listed. Calls of active or inactive are those of the source. The call rests on the fitted dose curve.
READOUT KIND: Potency

Look over these answered cases.
O=C(Nc1cccc(Cl)c1)Nc1ncc(CCNc2ncnc3ccsc23)s1 | 3.16 µM (active)
Nc1nc(-c2nn(Cc3ccccc3F)c3ncccc23)nc(N)c1N1CCOCC1 | inactive
CC1=C(C/C=C(\C)CCC[C@H](C)CCC[C@H](C)CCCC(C)C)C(=O)c2ccccc2C1=O | inactive
Cc1ccccc1-n1c(Cn2cnc3c(N)ncnc32)nc2cccc(C)c2c1=O | inactive

Now take the following compound into account.
// sample CC(=O)OCC(=O)[C@@]1(O)[C@H](C)C[C@H]2[C@@H]3C=C(C)C4=Cc5c(cnn5-c5ccccc5)C[C@]4(C)[C@@H]3[C@@H](O)C[C@@]21C , its Potency was inactive

* * *

target: Catechol O-methyltransferase (Homo sapiens) (UniProt P21964); assay: Confirmatory Screen for Target Class Profiling of Small Molecule Inhibitors of Methyltransferases (AID 1745852); settings: MTase-Glo luminescence, SAH detection, recombinant enzyme; measured here: COMT max response; stronger effect = lower value
Sequence (P21964 whole entry, looked up): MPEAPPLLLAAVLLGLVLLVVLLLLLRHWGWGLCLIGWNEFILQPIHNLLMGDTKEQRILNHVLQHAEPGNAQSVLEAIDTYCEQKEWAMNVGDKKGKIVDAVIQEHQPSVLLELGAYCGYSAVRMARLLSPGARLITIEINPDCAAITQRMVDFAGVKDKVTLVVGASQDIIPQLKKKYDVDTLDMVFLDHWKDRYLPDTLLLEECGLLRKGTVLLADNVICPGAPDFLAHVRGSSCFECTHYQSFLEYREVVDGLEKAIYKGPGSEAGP
A collection of molecules and their measured activity
# number only, unit % dropped from output

Look over these answered cases.
NC1CC1c1ccccc1 (stereo not drawn) | 4.07
CNCCc1c[nH]c2ccc(O)cc12 | 2.02
CCCN(CCC)[C@@H]1CCc2ccc(O)cc2C1 | 3.68
NCCc1c[nH]c2ccccc12 | -4.15
CC(C)NC(C)Cc1ccc(I)cc1 (stereo not drawn) | 0.93

// sample NC1CCc2cc(O)c(O)cc2C1 (stereo not drawn) , its activity was 149

// sample CNCCc1ccc(O)c(O)c1 , its activity was 109

// sample Cn1cnc(CCN)c1 , its activity was 2.37

* * *

Test: Quantitative High-Throughput drug screen in 47 multiple myeloma cell lines against the NCATS MIPE library collection: H1112_PLB cell viability assay (AID 1918967; also: potency is read from the fitted curve at half-maximal effect; nearly all actives have a fitted effect of over 30% in size)
Conditions: H1112 myeloma cells viability, ATP luminescence, 48 h; series mostly up to 45.8 µM
Text: PI: Beverly A. Mock Ph.D. Laboratory of Cancer Biology and Genetics, Center for Cancer Research, National Cancer Institute, National Institute of Health, Bethesda, Maryland […] 5; Detector; 425V; Luminescence; Viewlux PerkinElmer. […] 1. […] Briefly, the corresponding myeloma cell lines were screened in 1,536-well plates with 500 cells, 5-uL per well for inhibition of cell viability (assessed by measuring ATP levels with CellTiterGlo). […]
Inconclusive results are not listed. Activity calls are given as the source filed them. Calls follow the shape of the dose curve; as a rule, active = well fitted cell-killing curve with a large enough effect; inconclusive = small, poorly fitted or top-dose-only effect, or effect the other way; inactive = no such curve, though single readings can be large or run the other way.
// classify into active, inactive

Query: Lab log entry: c1ccc(CCCN2CCN(CCOC(c3ccccc3)c3ccccc3)CC2)cc1 — outcome as called in the assay?
Response: active

* * *

assay: Quantitative High-Throughput drug screen in 47 multiple myeloma cell lines against the NCATS MIPE library collection: ARD_JJKsccE7 cell viability assay (AID 1918929;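 as to viability: 100% = DMSO-only wells and 0% = media-only wells without cells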); conditions: ARD myeloma cell line viability, CellTiter-Glo, 48 h; series mostly up to 45.8 µM
Records with an inconclusive call do not appear. Active and inactive are the calls of the source. Calls come from the whole dose curve; as a rule, active = well fitted cell-killing curve with a large enough effect; inconclusive = small, poorly fitted or top-dose-only effect, or effect the other way; inactive = no such curve, though single readings can be large or run the other way.
// classify into 1 for active, -1 for inactive

Check out these entries, answers already filled in.
Clc1ccccc1C(c1ccccc1)(c1ccccc1)n1cccn1 | -1
C[C@@]12OC(=O)[C@]1([C@@H](O)[C@@H]1C=CCCC1)NC(=O)[C@H]2CCCl | 1
COc1cc2cc(c1Cl)N(C)C(=O)C[C@H](OC(=O)C(C)C)[C@]1(C)O[C@H]1[C@H](C)[C@@H]1C[C@@](O)(NC(=O)O1)[C@H](OC)C=CC=C(C)C2 | -1
C#CC1(O)CCC2C3CCC4=CC(=O)CCC4(C)C3CCC21C (stereo not given) | -1

Shift focus to the following entry.
Query: Lab log entry: O=C(N[C@H]1CN2CCC1CC2)c1ccc(Cl)cc1 — outcome as called in the assay?
Response: -1

* * *

test system: CP335; experiment: qHTS profiling for inhibitors of Plasmodium falciparum proliferation (AID 504749); also: nearly all actives have a fitted effect of over 60% in size; conditions: P. falciparum in erythrocytes, SYBR Green DNA, 72 h; series mostly up to 28.7 µM
Inconclusive results are not listed. Calls of active or inactive are those of the source. Calls follow the shape of the dose curve; as a rule, active = well fitted inhibition curve with a large enough effect; inconclusive = small, poorly fitted or top-dose-only effect; inactive = flat fitted curve, though single readings scatter.
// classify into active, inactive

Check out these entries, answers already filled in.
O=[N+]([O-])c1ccc([As](=O)(O)O)cc1 | active
CC(=O)OCC1=C(C(=O)O)N2C(=O)[C@@H](N)[C@@H]2SC1 | inactive
C#CC1(O)CCC2C3CCC4=CC(=O)CCC4(C)C3CCC21C (centres undefined) | inactive
CCCCCCCCCCCCCCCC[N+](C)(C)C | active
O=C(O)COc1ccccc1 | inactive

Query: Lab log entry: Cc1ccc(Cl)c(O)c1 — outcome as called in the assay?
Response: inactive

Query: Lab log entry: C[C@]12CCC(=O)C(O)=C1CC[C@@H]1[C@H]3CCC(=O)[C@@]3(C)CC[C@@H]12 — outcome as called in the assay?
Response: inactive
